Cited source for all entries: patent US20110046127A1

System: PIM-1 or PIM-2
Construct: fused on or other part: C-terminal histidine tag (PIM-1 enzyme); N-terminal histidine tag (PIM-2 enzyme)
Assay Name: PIM-1 / PIM-2 biochemical assay (ADP Hunter assay kit)
Parameters: species or system human
Test Context: tested in either the PIM-1 or the PIM-2 biochemical assay (as appropriate); ATP 100 μM
Measurement Label: pIC50
Units for pIC50: none; it is -log10 of a concentration expressed in mol/L.

Examples from the recorded data:
O=C(Nc1cnc2ccc(NCc3ccc(F)cc3)nn12)c1ccc(O)cc1 : 6.39
COc1ccc(CNc2ccc3nc(C)c(C(=O)Nc4ccccc4)n3n2)cc1 : 5.05
COc1ccc(CNc2ccc3ncc(C(=O)Nc4ccc(C(=O)O)cc4)n3n2)cc1 : 6.42
O=C(Nc1ccccc1)c1cnc2ccc(-c3ccoc3)nn12 : 6.33

The molecule listed as `O=C(Nc1ccccc1)c1cnc2ccc(-c3ccccc3)nn12` shows pIC50 equal to 6.31

The molecule listed as `O=C(Nc1ccccc1)c1cnc2ccc(NCc3ccc(Cl)c(Cl)c3)nn12` shows pIC50 equal to 7.22

The molecule listed as `Cc1cc2ncc(C(=O)Nc3ccccc3)n2nc1NCc1ccc(Cl)c(Cl)c1` shows pIC50 equal to 7.15
